Just for reference, the Biogen ADME set (Fang et al. 2023) is where these values come from.

- EXPERIMENTAL_CONDITIONS: pH 6.8
Label True when aqueous solubility >= 10 µg/mL; otherwise False.

>>> print(df.to_string())
                                   compound  classification
0  O=C(C(c1ccccc1)c1ccccc1)N1CCOCC(Cc2ccc3cnccc3c2)C1 (stereo unspecified)            True
1             CNC(=O)Cc1csc(-c2ccc(C)cc2)n1           False
2             CCc1nnc(NC(=O)Cc2cccc(F)c2)s1            True
3   Cc1ccc(C(N)=O)c(OCc2c(Cl)ccc3cccnc23)c1           False
4        O=C(O)c1ccccc1-c1ccc(CN2CCCCC2)cc1            True

Then there is this compound:
# bool: aqueous solubility of CCCn1ncc2ccc(C3CCCN(CC(=O)N4CCCC4)C3)nc21 (stereo unspecified) >= 10 µg/mL
True

====

Entries and their intrinsic clearance, rat liver microsomes

Here are 4 molecules together with their reported answers.
In [3]: df
Out[3]:
                                  compound    reported_value
0  CCOc1ccc(NC(=O)c2ccc3c(c2)NC(=O)CO3)cc1     459 mL/min/kg
1            CN(C)Cc1ccnc(NC(=O)c2ccsc2)c1     397 mL/min/kg
2         CN1CCC(=C2c3ccccc3CCc3sccc32)CC1    2130 mL/min/kg
3  O=C(Nc1ccn(CC(F)F)n1)NC1CCN(C2CCCC2)CC1  ≤ 10.7 mL/min/kg

Param item = "COCC(=O)N1CCC(Cc2ccccc2-c2cccc(F)c2)(C(=O)NC(C)C)CC1" ; retrieve measured intrinsic clearance, rat liver microsomes.
572 mL/min/kg

Param item = "COc1cc(F)ccc1-c1ncccc1NC(=O)C(C)C" ; retrieve measured intrinsic clearance, rat liver microsomes.
25.7 mL/min/kg

Param item = "Cc1cc(NC(=O)CCc2cnn(C)c2)c2ccccc2n1" ; retrieve measured intrinsic clearance, rat liver microsomes.
25 mL/min/kg

Param item = "CC(C)(C)c1ccc(-c2nc3n(c(=O)c2C#N)CCS3)cc1" ; retrieve measured intrinsic clearance, rat liver microsomes.
191 mL/min/kg

Param item = "CCOC(=O)N1CCN(C(=O)c2ccc3c(c2)OCO3)CC1" ; retrieve measured intrinsic clearance, rat liver microsomes.
112 mL/min/kg

====

Binarize intrinsic clearance, rat liver microsomes at 100 mL/min/kg; below is true (1), at or above is false (0).

                                   compound  classification
0  COc1ccc(CCCN2CCN(c3cnn(C)c3)C(=O)C2)cc1F        true (1)
1  COc1cc(OC)cc(-c2nnc(SCC(=O)Nc3cccc(C(=O)O)c3)s2)c1        true (1)
2  Fc1ccccc1-c1noc(-c2ccc(NCCc3cnccn3)nc2)n1       false (0)
3       O=C(NCc1ccc(O)c(O)c1)c1ccc2ccccc2n1       false (0)
4  [2H]c1nc(C)nc([2H])c1-c1cc(NC[C@@H](C)c2cccc3c(C(=O)NC)ccnc23)ncn1        true (1)

Then there is this compound:
Below 100 mL/min/kg on intrinsic clearance, rat liver microsomes? Entry "Cc1cc(NC(=O)c2cccs2)no1"
false (0)

====

Entries and their intrinsic clearance, rat liver microsomes
Return type: number; implicit unit mL/min/kg.

In [3]: df
Out[3]:
                                   compound  reported_value
0  Cc1noc(C(C)C)c1C(=O)N1CC(C)OC(c2ccccc2)C1 (stereo unspecified)            1610

Param item = "COc1ccc(F)c(CN2CCC(Cc3noc(C)n3)CC2)c1" ; retrieve measured intrinsic clearance, rat liver microsomes.
263

Param item = "Cc1cc(NC(=O)c2cc(F)cc(F)c2)sn1" ; retrieve measured intrinsic clearance, rat liver microsomes.
77.3

Param item = "CC(C)(C)OC(=O)NCCCC(=O)N[C@H]1C[C@@H](n2cnc3c(NCc4ccccc4)ncnc32)[C@@H](O)[C@H]1O" ; retrieve measured intrinsic clearance, rat liver microsomes.
160

Param item = "CCOC1CCN(c2ccnc(C(=O)NCc3ccccc3)c2)CC1" ; retrieve measured intrinsic clearance, rat liver microsomes.
390

Param item = "O=C1CN(C(=O)c2cccc(Oc3cccc(C(F)(F)F)c3)c2)CCN1" ; retrieve measured intrinsic clearance, rat liver microsomes.
66.1

====

MEASURED_PROPERTY: intrinsic clearance, rat liver microsomes (mL/min/kg)
Return type: number; implicit unit mL/min/kg.

In [3]: df
Out[3]:
                                   compound  measurement_units  reported_value
0  CCN(Cc1cccs1)C(=O)CN1CCC(n2c(=O)[nH]c3ccccc32)CC1          mL/min/kg            2800
1            NC1(c2noc(-c3cccnc3)n2)CCCCCC1          mL/min/kg             444
2           CCCNC(=O)c1c(C)nn(-c2ccccc2)c1C          mL/min/kg            2060

Param item = "CN1CCCN(C(=O)NCCOc2ccc3c(c2)OCO3)CC1" ; retrieve measured intrinsic clearance, rat liver microsomes.
20.3

Param item = "COc1cccc(CN2CCC(Cc3ccc(-c4cccnc4)cc3)(C(N)=O)CC2)c1" ; retrieve measured intrinsic clearance, rat liver microsomes.
631

Param item = "Cc1nc(-c2cccc(-c3ccc(C(=O)NC[C@@H]4CCCN4)cc3)c2)no1" ; retrieve measured intrinsic clearance, rat liver microsomes.
30.1

====

MEASURED_PROPERTY: intrinsic clearance, rat liver microsomes (mL/min/kg)
Return type: number; implicit unit mL/min/kg.

Here are 8 compounds together with their reported answers.
In [3]: df
Out[3]:
                                 compound  reported_value
0           CC(C)N1CCN(CCCSc2ncc[nH]2)CC1            87.1
1            Cc1cc(C(=O)NCC2CC2)n2nccc2n1            74.9
2   CC(C)c1nc2c(n1C)CCN(c1ncnc3ccccc13)C2             402
3         CC(C)c1nc(CCn2ccnc2-c2ccoc2)cs1            2160
4  Fc1ccc(CNc2nnc(-c3ccc4c(c3)OCO4)o2)cc1            4490
5              CCc1nc(CC)n(Cc2nc(C)cs2)n1            39.8
6        Cc1cc2ncn(CC(=O)NC(C)(C)C)c2cc1C            70.1
7            CCCc1cnc(C)nc1N(C)CCC(C)(C)O             155

Shift focus to the following entry.
Param item = "C#Cc1cccc(N(CCC(=O)NC(N)=O)Cc2cccs2)c1" ; retrieve measured intrinsic clearance, rat liver microsomes.
1070

====

- EXPERIMENTAL_CONDITIONS: pH 6.8
MEASURED_PROPERTY: aqueous solubility (µg/mL)
Return type: number; implicit unit µg/mL.

Param item = "COc1ccc(-c2noc([C@@H]3CCCN3Cc3ccccc3)n2)cn1" ; retrieve measured aqueous solubility.
25.5

Param item = "Cn1ncc2cc(-c3ccnc4[nH]ccc34)ccc21" ; retrieve measured aqueous solubility.
4.67

Param item = "O=C(Nc1ccc(F)cc1)c1cc(C2CC2)nn1-c1ccccc1" ; retrieve measured aqueous solubility.
4.11

====

Entries and their log10 of intrinsic clearance, human liver microsomes
All values: log10 intrinsic clearance, human liver microsomes [mL/min/kg].

>>> df
                                   molecule  reported_value
0  O=C(C1CCCN(c2cnccn2)C1)N1CCc2ccccc2C1 (stereo unspecified)            2.44
1       CC(C)c1ccc(NC(=O)c2ccc3nccnc3c2)cc1            1.46
2  CC(C)N(CCCNC(=O)Nc1ccc(C(C)(C)C)cc1)C[C@@H]1O[C@@H](n2ccc3c(N)ncnc32)[C@H](O)[C@H]1O            2.27

Param item = "CCCCCNC(=N)N/N=C/c1c[nH]c2ccc(OC)cc12" ; retrieve measured log10 of intrinsic clearance, human liver microsomes.
1.01

Param item = "CC(C)COc1ccc(C(C)(C)NCc2nnc(C3CCC3)o2)cc1" ; retrieve measured log10 of intrinsic clearance, human liver microsomes.
2.10

Param item = "c1cnc(NCCc2cccc3cccnc23)nc1" ; retrieve measured log10 of intrinsic clearance, human liver microsomes.
2.02

Param item = "Cc1nnc(-c2ccc(N3CCC(Oc4ccccc4C(F)(F)F)CC3)nn2)s1" ; retrieve measured log10 of intrinsic clearance, human liver microsomes.
1.16

====

Binarize intrinsic clearance, human liver microsomes at 20 mL/min/kg; below is T, at or above is F.

Previously resolved entries follow.
>>> df
                                   compound  classification
0     Cc1nnc(NCC(=O)N2CCc3sccc3C2)c(C#N)c1C               T
1  Fc1ccc(F)c(CN2CCN(Cc3ccc4c(c3)OCO4)CC2)c1               F
2                 c1cnc(NCc2cnc3ccsc3c2)nc1               T
3              O=C(NCc1ccccn1)c1ccc(F)cc1Cl               T
4  COCC(=O)N1CC[C@H](c2nnc(-c3ccc(C)cc3)o2)C1               T

Below 20 mL/min/kg on intrinsic clearance, human liver microsomes? Entry "Cc1[nH]nc(CCC(=O)NCCCOC2CCCC2)c1C"
F

Below 20 mL/min/kg on intrinsic clearance, human liver microsomes? Entry "COCCOCc1ccc(-c2cc3onc(-c4ccccc4)c3c(=O)n2C)cc1"
T

Below 20 mL/min/kg on intrinsic clearance, human liver microsomes? Entry "CCN(C/C=C/c1ccc(F)cc1)Cc1nc(COC)no1"
F

Below 20 mL/min/kg on intrinsic clearance, human liver microsomes? Entry "O=C(NCc1ccc(-n2cncn2)nc1)c1csc2c1CCCC2"
F

Below 20 mL/min/kg on intrinsic clearance, human liver microsomes? Entry "Cc1ccc(OCCCC(=O)N2CCC(n3c(=O)[nH]c4ccccc43)CC2)cc1"
F

Below 20 mL/min/kg on intrinsic clearance, human liver microsomes? Entry "Cc1csc(NC(=O)c2cccc(C)c2C)n1"
F

Below 20 mL/min/kg on intrinsic clearance, human liver microsomes? Entry "O=C1Oc2nc3cc4c(cc3cc2CN1CCN1CCOCC1)OCO4"
T
